- System: Midbrain
- assay details: Drug uptake in anesthetized cynomolgus monkey brain midbrain after 145 mins postinjection
- Assay type: ADME, organism-based, Macaca fascicularis
- test conditions: in vivo
Below, each entry is listed with its recorded Drug uptake.

> print(dat)
                                   molecule  result
1  O=C(OCC[18F])C1C2CCC(CC1c1cccc(/C=C\Br)c1)N2 (stereo not given)    4.65

Problem: Give the value of Drug uptake reported for the following: O=C(OCCC[18F])C1C2CCC(CC1c1cccc(/C=C\I)c1)N2 (stereo not given)
Result: 4.38

Problem: Please look at this molecule and report its Drug uptake: O=C(OCC[18F])C1C2CCC(CC1c1ccc(/C=C\I)cc1)N2 (stereo not given)
Result: 4.65

Problem: Give the reported value of Drug uptake for this record: O=C(OCC[18F])C1C2CCC(CC1c1cccc(/C=C\I)c1)N2 (stereo not given)
Result: 3.85

Problem: # return recorded Drug uptake for input O=C(OCCC[18F])C1C2CCC(CC1c1cccc(/C=C\Br)c1)N2 (stereo not given)
Result: 5.18

Attribution: ChEMBL document CHEMBL1151757
